Values were extracted from ChEMBL document CHEMBL1142699.

biological target: UniProtKB P41146; assay: Inhibition of forskolin stimulated cAMP levels in CHO cells expressing the human NOP receptor (CHOhNOP)
Sequence (P41146 whole entry): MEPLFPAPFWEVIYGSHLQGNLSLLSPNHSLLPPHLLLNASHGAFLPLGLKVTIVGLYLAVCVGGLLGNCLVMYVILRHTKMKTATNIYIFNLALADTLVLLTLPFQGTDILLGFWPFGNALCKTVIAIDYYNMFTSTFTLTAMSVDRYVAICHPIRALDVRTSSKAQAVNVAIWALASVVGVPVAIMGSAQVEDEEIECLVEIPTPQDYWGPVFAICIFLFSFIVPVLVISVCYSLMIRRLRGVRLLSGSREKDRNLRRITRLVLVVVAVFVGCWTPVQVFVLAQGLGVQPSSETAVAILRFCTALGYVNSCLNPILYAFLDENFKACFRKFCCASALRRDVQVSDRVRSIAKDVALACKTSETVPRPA
Numbered stars: 1 amine (or outer) side, 2 acyl side, 3 side chain; on linkers, the order of the positions; unused ones are H or OH. Square brackets hold non-standard residues; d marks the D form. Peptide text beside a SMILES is read from it. X1 = N[C@@H](Cc1ccccc1)CN(CC(=O)[*:2])[*:1]; Phe(4-F) = N[C@@H](Cc1ccc(F)cc1)C(=O)O
Each item that follows carries a reported EC50.
Use pM as the unit, but write only the number.

Here's what some known entries look like.
What does the record list as EC50 for CC(C)C[C@H](NC(=O)[C@H](CCCCN)NC(=O)[C@H](CCCN=C(N)N)NC(=O)[C@H](C)NC(=O)[C@H](CO)NC(=O)[C@H](CCCCN)NC(=O)[C@H](CCCN=C(N)N)NC(=O)[C@H](C)NC(=O)CNC(=O)[C@@H](NC(=O)[C@H](Cc1ccccc1)NC(=O)CNC(=O)CNC[C@@H](N)Cc1ccccc1)[C@@H](C)O)C(=O)N[C@@H](C)C(=O)N[C@@H](CC(N)=O)C(=O)N[C@@H](CCC(N)=O)C(N)=O (H-[X1]GFTGARKSARKLANQ-NH2) ?
759

Reported EC50 for CC(C)C[C@H](NC(=O)[C@H](CCCCN)NC(=O)[C@H](CCCN=C(N)N)NC(=O)[C@H](C)NC(=O)[C@H](CO)NC(=O)[C@H](CCCCN)NC(=O)[C@H](CCCN=C(N)N)NC(=O)[C@H](C)NC(=O)CNC(=O)[C@@H](NC(=O)[C@H](Cc1ccc(F)cc1)NC(=O)CNC(=O)CNC[C@@H](N)Cc1ccccc1)[C@@H](C)O)C(=O)N[C@@H](C)C(=O)N[C@@H](CC(N)=O)C(=O)N[C@@H](CCC(N)=O)C(N)=O (H-[X1]G[Phe(4-F)]TGARKSARKLANQ-NH2) : what is it?
479

Further cases:
Looking for the measured EC50 of C[C@H](NC(=O)CNC(=O)[C@@H](NC(=O)[C@H](Cc1ccc(F)cc1)NC(=O)CNC(=O)CNC(=O)CNCc1ccccc1)[C@@H](C)O)C(=O)N[C@@H](CCCN=C(N)N)C(=O)N[C@@H](CCCCN)C(=O)N[C@@H](CO)C(=O)N[C@@H](C)C(=O)N[C@@H](CCCN=C(N)N)C(=O)N[C@@H](CCCCN)C(=O)N[C@@H](CCCN=C(N)N)C(=O)N[C@@H](CCCCN)C(=O)N[C@@H](CC(N)=O)C(=O)N[C@@H](CCC(N)=O)C(N)=O , can you help?
4900

====

target: Nociceptin receptor (Mus musculus) (UniProt P35377); assay: Antagonistic potency against N/OFQ in electrically evoked contraction of mouse vas deferens at 1 uM; assay type: functional, tissue-based
Sequence (P35377 whole entry): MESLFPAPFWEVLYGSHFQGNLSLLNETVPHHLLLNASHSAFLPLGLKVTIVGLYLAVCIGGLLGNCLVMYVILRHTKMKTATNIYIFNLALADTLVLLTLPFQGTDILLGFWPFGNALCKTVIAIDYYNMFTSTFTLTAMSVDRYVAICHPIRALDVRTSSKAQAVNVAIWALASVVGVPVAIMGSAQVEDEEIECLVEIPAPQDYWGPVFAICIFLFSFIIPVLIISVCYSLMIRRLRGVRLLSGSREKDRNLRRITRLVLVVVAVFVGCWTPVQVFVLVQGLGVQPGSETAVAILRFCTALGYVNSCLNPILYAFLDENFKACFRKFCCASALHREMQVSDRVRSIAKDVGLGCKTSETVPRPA
Numbered stars: 1 amine (or outer) side, 2 acyl side, 3 side chain; on linkers, the order of the positions; unused ones are H or OH. Square brackets hold non-standard residues; d marks the D form. Peptide text beside a SMILES is read from it. * marks the point of attachment. X1 = N[C@@H](Cc1ccccc1)CN(CC(=O)[*:2])[*:1]; Phe(4-F) = N[C@@H](Cc1ccc(F)cc1)C(=O)O; N(NH2)2 = NN(N)*; NHNH2 = NN*
Please use Met whenever pKb is not below 7, and Not met whenever it is.

Exam item: decide whether the reported pKb for CC(C)C[C@H](NC(=O)[C@H](CCCCN)NC(=O)[C@H](CCCN=C(N)N)NC(=O)[C@H](C)NC(=O)[C@H](CO)NC(=O)[C@H](CCCCN)NC(=O)[C@H](CCCN=C(N)N)NC(=O)[C@H](C)NC(=O)CNC(=O)[C@@H](NC(=O)[C@H](Cc1ccc(F)cc1)NC(=O)CNC(=O)CNC(=O)CNCc1ccccc1)[C@@H](C)O)C(=O)N[C@@H](C)C(=O)N[C@@H](CC(N)=O)C(=O)N[C@@H](CCC(N)=O)C(N)=O is at least 7.
Not met

More entries:
# check: pKb of C[C@H](NC(=O)CNC(=O)[C@@H](NC(=O)[C@H](Cc1ccccc1)NC(=O)CNC(=O)CNC[C@@H](N)Cc1ccccc1)[C@@H](C)O)C(=O)N[C@@H](CCCN=C(N)N)C(=O)N[C@@H](CCCCN)C(=O)N[C@@H](CO)C(=O)N[C@@H](C)C(=O)N[C@@H](CCCN=C(N)N)C(=O)N[C@@H](CCCCN)C(=O)N[C@@H](CCCN=C(N)N)C(=O)N[C@@H](CCCCN)C(=O)N[C@@H](CC(N)=O)C(=O)N[C@@H](CCC(=O)N(N)N)C(=O)NN (H-[X1]GFTGARKSARKRKNE(N(NH2)2)-NHNH2) is greater than or equal to 7
Met

Threshold query (pKb >= 7) on C[C@H](NC(=O)CNC(=O)[C@@H](NC(=O)[C@H](Cc1ccccc1)NC(=O)CNC(=O)CNC(=O)CNCc1ccccc1)[C@@H](C)O)C(=O)N[C@@H](CCCN=C(N)N)C(=O)N[C@@H](CCCCN)C(=O)N[C@@H](CO)C(=O)N[C@@H](C)C(=O)N[C@@H](CCCN=C(N)N)C(=O)N[C@@H](CCCCN)C(=O)N[C@@H](CCCN=C(N)N)C(=O)N[C@@H](CCCCN)C(=O)N[C@@H](CC(N)=O)C(=O)N[C@@H](CCC(=O)N(N)N)C(=O)NN
Met

pKb >= 7 for CC(C)C[C@H](NC(=O)[C@H](CCCCN)NC(=O)[C@H](CCCN=C(N)N)NC(=O)[C@H](C)NC(=O)[C@H](CO)NC(=O)[C@H](CCCCN)NC(=O)[C@H](CCCN=C(N)N)NC(=O)[C@H](C)NC(=O)CNC(=O)[C@@H](NC(=O)[C@H](Cc1ccc(F)cc1)NC(=O)CNC(=O)CNC[C@@H](N)Cc1ccccc1)[C@@H](C)O)C(=O)N[C@@H](C)C(=O)N[C@@H](CC(N)=O)C(=O)N[C@@H](CCC(N)=O)C(N)=O (H-[X1]G[Phe(4-F)]TGARKSARKLANQ-NH2) ?
Met
